Provide the recorded zone of inhibition at 1000 µg/mL for the entries that follow.
system: Escherichia coli; experiment: Antimicrobial activity against Escherichia coli at 1 mg/ml after 24 hr by agar well diffusion method; type: functional; details: read-out: DIZ
State just the number; it will be interpreted in mm.

Task: Bench note: what zone of inhibition at 1000 µg/mL did Cc1nn(-c2ccccc2)c(Cl)c1/C=C/C1=Cc2c(sc(N3C(=O)[C@@H](Oc4ccc(Cl)cc4Cl)[C@H]3c3ccccc3)c2C#N)C(C)(C)C1 (relative stereo) show?
Output: 14.2

Task: Bench note: what zone of inhibition at 1000 µg/mL did O=C(N[C@H](CO)[C@H](O)c1ccc([N+](=O)[O-])cc1)C(Cl)Cl show?
Output: 17

Task: Bench note: what zone of inhibition at 1000 µg/mL did Cc1nn(-c2ccccc2)c(Cl)c1/C=C/C1=Cc2c(sc(N3C(=O)[C@@H](Oc4ccc(Cl)cc4Cl)[C@H]3c3ccc([N+](=O)[O-])cc3)c2C#N)C(C)(C)C1 (relative stereo) show?
Output: 14

Task: Bench note: what zone of inhibition at 1000 µg/mL did Cc1nn(-c2ccccc2)c(Cl)c1/C=C/C1=Cc2c(sc(N3C(=O)[C@@H](Oc4ccc(Cl)cc4Cl)[C@H]3c3ccccc3Cl)c2C#N)C(C)(C)C1 (relative stereo) show?
Output: 17.8

Task: Bench note: what zone of inhibition at 1000 µg/mL did COc1ccc([C@@H]2[C@H](Oc3ccc(Cl)cc3Cl)C(=O)N2c2sc3c(c2C#N)C=C(/C=C/c2c(C)nn(-c4ccccc4)c2Cl)CC3(C)C)cc1 (relative stereo) show?
Output: 15.6

Task: Bench note: what zone of inhibition at 1000 µg/mL did COc1ccc([C@@H]2[C@H](Oc3ccc(Cl)cc3Cl)C(=O)N2c2sc3c(c2C#N)C=C(/C=C/c2c(C)nn(-c4ccccc4)c2Cl)CC3(C)C)cc1O (relative stereo) show?
Output: 13.7

Task: Bench note: what zone of inhibition at 1000 µg/mL did Cc1nn(-c2ccccc2)c(Cl)c1/C=C/C1=Cc2c(sc(N3C(=O)[C@@H](Oc4ccc(Cl)cc4Cl)[C@H]3c3ccccc3O)c2C#N)C(C)(C)C1 (relative stereo) show?
Output: 17.6

Task: Bench note: what zone of inhibition at 1000 µg/mL did COc1cc([C@@H]2[C@H](Oc3ccc(Cl)cc3Cl)C(=O)N2c2sc3c(c2C#N)C=C(/C=C/c2c(C)nn(-c4ccccc4)c2Cl)CC3(C)C)cc(OC)c1OC show?
Output: 12.9

Task: Bench note: what zone of inhibition at 1000 µg/mL did C=CC1=C(C(=O)O)N2C(=O)[C@@H](NC(=O)/C(=N\OCC(=O)O)c3csc(N)n3)[C@H]2SC1 show?
Output: 30

Task: Bench note: what zone of inhibition at 1000 µg/mL did Cc1nn(-c2ccccc2)c(Cl)c1/C=C/C1=Cc2c(sc(N3C(=O)[C@@H](Oc4ccc(Cl)cc4Cl)[C@H]3c3ccc(N(C)C)cc3)c2C#N)C(C)(C)C1 (relative stereo) show?
Output: 14.6

Task: Bench note: what zone of inhibition at 1000 µg/mL did Cc1nn(-c2ccccc2)c(Cl)c1/C=C/C1=Cc2c(sc(N3C(=O)[C@@H](Oc4ccc(Cl)cc4Cl)[C@H]3c3ccc(Cl)cc3)c2C#N)C(C)(C)C1 (relative stereo) show?
Output: 13.9

Task: Bench note: what zone of inhibition at 1000 µg/mL did Cc1nn(-c2ccccc2)c(Cl)c1/C=C/C1=Cc2c(sc(N3C(=O)[C@@H](Oc4ccc(Cl)cc4Cl)[C@H]3c3ccc(Cl)c(Cl)c3)c2C#N)C(C)(C)C1 (relative stereo) show?
Output: 12
